Origin of the recorded values: patent CN110698367A

test system: non-small cell lung cancer cells A549 [非小细胞肺癌细胞A549]; experiment: MTT antiproliferation assay, A549; type: cell-based; conditions: Homo sapiens, 48 h
readout: pIC50
Note on pIC50: it is the negative log10 of concentration, concentration in mol/L.

query: Report measured pIC50; entry is COc1ccc(S(=O)(=O)Nc2ccc(-c3ccc(C#N)c(F)c3)c3ccccc23)cc1 [VI 10]
result: 5.35
